- System: IL-4 induced germline ε transcription
- measurement notes: Re-infection assay in naïve A5T4 reporter cells (BFP-/BFP+ GFP FACS)
- Assay type: cell-based, human
- recorded conditions: % change calculated after subtracting 1.0 from the individual ratios
assay readout: functional category of mutant as compared to wild type peptide, based on reporter ratio

substance="LYTS I LLHGAAAASMTKPLA (LYTSILLHGAAAASMTKPLA; peptide generated from combinatorial library) [DL03TT, double-residue mutant of DL03 wt]" data_value=neutral
substance="LYTS I LLHGATTRAMTKPLA (LYTSILLHGATTRAMTKPLA; Peptide generated from combinatorial library) [DL03AS, double-residue mutant of DL03 wt]" data_value=neutral
substance="LYAAI LLHGATTASMTKPLA (LYAAILLHGATTASMTKPLA; peptide generated from combinatorial library) [DL03TS, double-residue mutant of DL03 wt]" data_value=neutral
substance="LYTS I LLHGATTASAAKPLA (LYTSILLHGATTASAAKPLA; Peptide generated from combinatorial library) [DL03MT, double-residue mutant of DL03 wt]" data_value=neutral

// next item, functional category of mutant as compared to wild type peptide, based on reporter ratio requested
Query block: Param item = LYTS I LLHARTTASMTKPLA (LYTSILLHARTTASMTKPLA; peptide generated from combinatorial library) [DL03GA, double-residue mutant of DL03 wt] ; retrieve measured functional category of mutant as compared to wild type peptide, based on reporter ratio.
Result block: neutral
